Assay: in vitro
Conditions: human, hela cells, % viability
Value kind: viability at 28.5 h, 10 µM (%)
Field: numeric (%). Do not append units.

Worked examples follow.
INSERT INTO measurements (molecule, quantitative_readout) VALUES
  ('O=C(c1nc2ccccc2s1)C1CCN(C(=O)c2ccco2)CC1', 83.6),
  ('N#Cc1ccc2nc([C@H]3CCN(C(=O)C4CCCCC4)C3)[nH]c2c1', 90),
  ('Cc1nc(C2(O)CCCN(C3CCCC3)CC2)sc1COc1ccc(Cl)cc1 (stereo not drawn)', 122);

Consider Cc1nc2ccccn2c1-c1csc(N)n1 [CBK288628B] . Its measured viability at 28.5 h, 10 µM is 91.7

Consider O=C(NCc1cccc(C(F)(F)F)c1)N1CCN(c2ccc(F)cc2)CC1 . Its measured viability at 28.5 h, 10 µM is 89.4

Consider CC(=O)c1ccc(NC(=O)NC[C@H]2C[C@@H]3CC[N@]2C[C@@H]3CN2CCCCC2)cc1 . Its measured viability at 28.5 h, 10 µM is 92.3

Consider Cc1cc2c(cc1C)C(=O)CC1(CCN(C(=O)c3ccco3)CC1)O2 . Its measured viability at 28.5 h, 10 µM is 96

Consider Cn1cc(C2CNCCN2C(=O)CCCc2csc3ccccc23)cn1 (stereo not drawn) [CBK304274C] . Its measured viability at 28.5 h, 10 µM is 89.9

Consider c1cnn(C2CCN(Cc3ccc(Oc4cnccn4)cc3)CC2)c1 . Its measured viability at 28.5 h, 10 µM is 85.7

###

Assay: in vitro
Conditions: human, hela cells, % viability
Lab note: cut-off is 90%. Strictly less in viability at 28.5 h, 10 µM is criterion met. Exactly 90% or more is criterion not met.

INSERT INTO measurements (compound, cat) VALUES
  ('COc1cc(NC(=O)CCc2ccccc2)nc(OC)n1', 'criterion met'),
  ('CCN(CC)C(=O)Cn1nc(C)n2c(cc3occc32)c1=O', 'criterion met'),
  ('Cc1cc(C)n(CCCNC(=O)Nc2cccnc2)n1', 'criterion met'),
  ('CC(C)c1ccc(NC(=O)CN2CCN(c3ccc(C(F)(F)F)cn3)CC2)cc1', 'criterion met'),
  ('CS(=O)(=O)Nc1nccnc1-c1ccc2c(c1)OCO2', 'criterion not met');

Challenge: Take the compound COc1ccc(C)cc1N(CC(=O)Nc1ccccc1C(=O)O)S(C)(=O)=O and say whether its viability at 28.5 h, 10 µM is less than 90%.
Response given: criterion not met

Challenge: Take the compound Cc1ccc(C(=O)N(Cc2nc(-c3ccc(Cl)cc3)no2)C(C)C)cc1[N+](=O)[O-] and say whether its viability at 28.5 h, 10 µM is less than 90%.
Response given: criterion not met

Challenge: Take the compound Cc1ccccc1C(=O)NCCNC(=O)c1cccnc1 and say whether its viability at 28.5 h, 10 µM is less than 90%.
Response given: criterion not met

Challenge: Take the compound Fc1cccc(-c2nc3cnccn3c2NCc2cccs2)c1 and say whether its viability at 28.5 h, 10 µM is less than 90%.
Response given: criterion not met

###

Catalogue of compounds with associated viability at 28.5 h, 10 µM
Assay: in vitro
Settings: human, hela cells, % viability
Field: numeric (%). Do not append units.

Worked examples follow.
INSERT INTO assay_data (compound, quantitative_readout) VALUES
  ('COc1ccc(C(=O)CSc2nnc(-c3ccccc3)c3ccccc23)cc1OC', 93.3),
  ('Nc1ccc(-c2cn3ccnc3c(NCC3CC3)n2)cc1', 101),
  ('O=C(O)C1CCCCC1C(=O)NCCCCc1ccccc1 (centres unmarked)', 83.2),
  ('COc1ccccc1NC(=O)CN(c1ccc(Br)cc1)S(C)(=O)=O', 99.3),
  ('COc1ccc2[nH]c3c(c2c1)CCOC31CCN(C(=O)N[C@@H](C)c2ccccc2)CC1', 98.5);

Consider COc1cncc(-c2cnc(N)c(N[C@@H](CO)C(C)C)n2)c1 . Its measured viability at 28.5 h, 10 µM is 106

Consider COCCCN1C(=O)c2[nH]nc(-c3cc(C)c(C)cc3O)c2C1c1ccc(SC)cc1 (centres unmarked) . Its measured viability at 28.5 h, 10 µM is 89

Consider O=C(CCN1C(=O)/C(=C\C=C\c2ccccc2)SC1=S)Nc1ccc(C(=O)O)cc1 . Its measured viability at 28.5 h, 10 µM is 104

Consider Cc1n[nH]c(C)c1CCC(=O)N/N=C/c1cccc(O)c1 . Its measured viability at 28.5 h, 10 µM is 97.7

Consider O=C(O)CC1C(=O)NCCN1CCCc1ccccc1 (centres unmarked) . Its measured viability at 28.5 h, 10 µM is 90.2

Consider CC(C)S(=O)(=O)n1ccn(-c2ccc(N(C)C)cc2)c1=O . Its measured viability at 28.5 h, 10 µM is 95.7

Consider O=C(COc1ccc2ccccc2c1)Nc1ccc(S(=O)(=O)N2CCCCC2)cc1 . Its measured viability at 28.5 h, 10 µM is 118

Consider COc1cc(NC(=O)NCc2cncn2CC(C)C)c2ncccc2c1 . Its measured viability at 28.5 h, 10 µM is 52.1

Consider CC(=O)NC(O)C(=O)c1cccs1 (centres unmarked) . Its measured viability at 28.5 h, 10 µM is 111

Consider Cc1c(OCc2ccccc2)ccc2c1OC1(CCN(C(=O)c3ccccn3)CC1)CC2=O . Its measured viability at 28.5 h, 10 µM is 106

Consider CC(=O)N[C@H]1CC[C@]2(C)CCC([C@H](C)C(=O)N3CCCCC3)[C@H](O)[C@H]2[C@@H]1C (some centres unmarked) . Its measured viability at 28.5 h, 10 µM is 89.4

###

Assay: in vitro
Conditions: human, hela cells, % viability
Value kind: viability at 28.5 h, 10 µM (%)
Field: numeric (%). Do not append units.

Worked examples follow.
INSERT INTO assay_data (molecule, value_kind, quantitative_readout) VALUES
  ('CN1CCN(C(=O)c2ccc(Cl)c(S(=O)(=O)N3CCCCC3)c2)CC1', 'viability at 28.5 h, 10 µM', 94.7),
  ('COCc1ccc(C(=O)NCC2CCCOC2)o1 (stereo not drawn)', 'viability at 28.5 h, 10 µM', 83.3),
  ('CN1CCN(S(=O)(=O)c2ccc(F)cc2)CC1', 'viability at 28.5 h, 10 µM', 88),
  ('CN(CCC#N)S(=O)(=O)c1ccc(Cl)c(Cl)c1', 'viability at 28.5 h, 10 µM', 91.8);

Consider CC(C)NC(=O)CC[C@@H]1CNC(=O)[C@@H]2C[C@H](NC(=O)c3ccccc3)CN12 . Its measured viability at 28.5 h, 10 µM is 90.9

Consider CC(=O)c1c(C)nn2c3ccccc3n(CCN3CCOCC3)c12 [CBK262709C] . Its measured viability at 28.5 h, 10 µM is 115

Consider c1ccc2c(c1)CCC2Oc1cncc(N2CCNCC2)n1 (stereo not drawn) [CBK200005G] . Its measured viability at 28.5 h, 10 µM is 91

Consider CS(=O)(=O)Nc1cccc2cc[nH]c12 . Its measured viability at 28.5 h, 10 µM is 110

Consider O=C(O)CN(c1ccc2c(c1)OCCO2)S(=O)(=O)c1ccccc1 . Its measured viability at 28.5 h, 10 µM is 115

Consider O=C(NCc1sccc1Cl)Nc1cccc(Cl)c1 . Its measured viability at 28.5 h, 10 µM is 92.4

Consider CC1CCc2n[nH]c(C(=O)NC3CN4CCC3CC4)c2C1 (stereo not drawn) . Its measured viability at 28.5 h, 10 µM is 108

Consider CCN(Cc1ccc(C#N)cc1F)C(=O)NC(C)c1cnn(C)c1C (stereo not drawn) . Its measured viability at 28.5 h, 10 µM is 108

Consider CC(=C\C(=O)O)/C(=C\c1ccc(Br)cc1)C(=O)O [CBK278280N] . Its measured viability at 28.5 h, 10 µM is 88.1

Consider COc1cccc(-c2ccc(NS(=O)(=O)c3ccc4c(c3)CCC(=O)N4)cc2)c1 . Its measured viability at 28.5 h, 10 µM is 87.1

Consider Cc1cccc(C)c1NC(=O)CN(Cc1ccccc1)Cc1cc2ccc(C)c(C)c2[nH]c1=O [CBK122696T] . Its measured viability at 28.5 h, 10 µM is 94.4

Consider CC(Sc1nc(N)cc(=O)[nH]1)C(=O)Nc1ccc(S(N)(=O)=O)cc1 (stereo not drawn) . Its measured viability at 28.5 h, 10 µM is 110

Consider CCCNC(=O)c1nn2c(c1Cl)NC(c1cccs1)CC2C(F)(F)F (stereo not drawn) . Its measured viability at 28.5 h, 10 µM is 90.3

Consider O[C@H]1[C@H](NCC2CC2)[C@H]2CO[C@H](O2)[C@@H]1N1CCOCC1 . Its measured viability at 28.5 h, 10 µM is 86.4
